Would you kindly list T/C for each of these compounds?
- System: P388 leukemia ip, CD2F1 mice, survival T/C
- test summary: NCI In Vivo Anticancer Drug Screen. Data for tumor model P388 Leukemia (intraperitoneal) in CD2F1 (CDF1) mice
- recorded conditions: endpoint: median survival time; dose: 200.0 mg/kg/injection; schedule: Q04DX002 (ip); vehicle: Klucel (hydroxypropylcellulose) (HPC); higher = longer survival
Inconclusive results and toxic doses are left out.

Guide cases for T/C, answers given:
input smiles | T/C
O=C1C(=Cc2ccc(Cl)cc2)C(=O)N(c2ccccc2)C(=S)N1c1ccccc1 | 93 % of control
COc1ccc(C2=C(Cl)C(=O)N(c3ccccc3Cl)C(=O)C2(Cl)Cl)cc1 | 112 % of control

Provide T/C values for the following items, in order.
1. COc1ccc2c(c1)nc(-c1ccccn1)n2CCc1ccccn1
2. Cc1cccc(N=Nc2c(-c3ccccc3)nn(C(N)=S)c2C)c1C
3. Cc1nc2c([N+](=O)[O-])cccc2c2ccccc12

Reply |
1: 104 % of control; 2: 105 % of control; 3: 89 % of control

###

- System: P388 leukemia ip, CD2F1 mice, survival T/C
- test summary: NCI In Vivo Anticancer Drug Screen. Data for tumor model P388 Leukemia (intraperitoneal) in CD2F1 (CDF1) mice
- recorded conditions: endpoint: median survival time; dose: 100.0 mg/kg/injection; schedule: Q01DX009 (ip); vehicle: saline with Tween-80; higher = longer survival
Inconclusive results and toxic doses are left out.
measurement kind: T/C

Observe how each entry below is paired with its result.
compound | study target | result
COc1ccc(Br)cc1/C=N\NS(=O)(=O)c1ccc(C)cc1 | P388 leukemia ip, CD2F1 mice, survival T/C | 104 % of control
Cl/N=C(\Nc1ccccc1)c1ccccn1 | P388 leukemia ip, CD2F1 mice, survival T/C | 96 % of control
O=C(O)CC(=O)Nc1ccccc1S | P388 leukemia ip, CD2F1 mice, survival T/C | 90 % of control
CCCSCC(C)C | P388 leukemia ip, CD2F1 mice, survival T/C | 100 % of control
OCC1OC(OC2C(CO)OC(S)C(O)C2O)C(O)C(O)C1O (stereo not drawn) | P388 leukemia ip, CD2F1 mice, survival T/C | 92 % of control

Consider the following items and state reported T/C for each.
1. CCOC(=O)C1(c2ccccc2)C(=O)Oc2ccccc21 (stereo not drawn)
2. CCOC(=O)c1ccc(NC(CCSc2ccccc2)=NC(C)(C)C)cc1
3. COC(=O)CC(C)CC(=O)O (stereo not drawn)

Reply |
1: 124 % of control; 2: 107 % of control; 3: 107 % of control

Would you mind listing T/C for each of the following compounds?
1. CN(C)c1ccc(-c2nc(-c3ccccc3)c(-c3ccccc3)[nH]2)cc1
2. COc1nc(N)c2c3c([nH]c2c1C#N)C(C)(C)c1ccccc1N3C
3. O=C(Nc1cccc(Cl)c1)OCCCc1ccncc1
4. CC(C)(C)N=C(Cc1ccccc1)N1CCOCC1
5. CCN1C(=O)Nc2ccc(Cl)cc2C1(O)c1ccccc1 (stereo not drawn)

Reply |
1: 100 % of control; 2: 100 % of control; 3: 96 % of control; 4: 96 % of control; 5: 99 % of control

###

- Tested on: P388 leukemia ip, CD2F1 mice, survival T/C
- test summary: NCI In Vivo Anticancer Drug Screen. Data for tumor model P388 Leukemia (intraperitoneal) in CD2F1 (CDF1) mice
- recorded conditions: endpoint: median survival time; dose: 100.0 mg/kg/injection; schedule: Q04DX002 (ip); vehicle: saline with Tween-80; higher = longer survival
Toxic doses and inconclusive results are not listed.
Assignment: determine reported T/C for the given compounds.

Some solved entries appear below for comparison.
compound | study target | result
N#Cc1c(=O)[nH]nc2c3ccccc3c3ccccc3c12 | P388 leukemia ip, CD2F1 mice, survival T/C | 92 % of control
O=C(O)c1cn2ccccc2c1[N+](=O)[O-] | P388 leukemia ip, CD2F1 mice, survival T/C | 94 % of control
O=C1OC(c2ccccc2)=N/C1=C\c1ccc(/C=C2/N=C(c3ccccc3)OC2=O)cc1 | P388 leukemia ip, CD2F1 mice, survival T/C | 100 % of control
NC(=O)C1C(C(N)=O)C2C3C=CC(C4C(=O)NC(=O)C34)C12 (stereo unspecified) | P388 leukemia ip, CD2F1 mice, survival T/C | 102 % of control
Clc1ccccc1N/N=c1\nnc2c(Cl)cccc2s1 | P388 leukemia ip, CD2F1 mice, survival T/C | 94 % of control

As a next step, examine the compound that follows.
So the reported T/C for COC(=O)CC(C(=O)OC)C(C(=O)OC)C(C(=O)OC)C(CC(=O)OC)C(=O)OC (stereo unspecified) , on P388 leukemia ip, CD2F1 mice, survival T/C, turned out to be 98 % of control

###

- Tested on: P388 leukemia ip, CD2F1 mice, survival T/C
- test summary: NCI In Vivo Anticancer Drug Screen. Data for tumor model P388 Leukemia (intraperitoneal) in CD2F1 (CDF1) mice
- recorded conditions: endpoint: median survival time; dose: 100.0 mg/kg/injection; schedule: Q01DX009 (ip); vehicle: Klucel (hydroxypropylcellulose) (HPC); higher = longer survival
Inconclusive results and toxic doses are left out.
measurement kind: T/C

molecule | study target | T/C
OC(Cc1cccnc1)(c1ccccc1)c1ccccc1 | P388 leukemia ip, CD2F1 mice, survival T/C | 109 % of control
NC(CCC(N)C(=O)O)C(=O)O (stereo not drawn) | P388 leukemia ip, CD2F1 mice, survival T/C | 87 % of control
c1ccc2c(c1)SP(P1Sc3ccccc3S1)S2 | P388 leukemia ip, CD2F1 mice, survival T/C | 107 % of control
CC(=O)NC1C(OC(C)=O)OC(C[Se][As](C)C)C(OC(C)=O)C1OC(C)=O (stereo not drawn) | P388 leukemia ip, CD2F1 mice, survival T/C | 110 % of control
COc1cc2c(cc1O)CCCCC2O (stereo not drawn) | P388 leukemia ip, CD2F1 mice, survival T/C | 97 % of control

Record T/C per entry; entries follow.
1. O=C1CC2(CCCC2)C(=O)N1c1ccc(O)c(CN2CCCCC2)c1
2. CCCCCCCCCCCC(=O)C(=O)c1ccc(O)cc1O
3. NC1=C(c2cccc(Cl)c2)C(=O)CC12C=CC(=O)C=C2

Reply |
1. 104 % of control
2. 107 % of control
3. 104 % of control

Items follow; give T/C for each.
1. O=C1OCC2C1Cc1cc(O)c(O)cc1C2c1ccc(O)c(O)c1 (stereo not drawn)
2. CSc1nc(C(N)=O)c(N)c(=O)[nH]1
3. Nc1nncc(-c2ccccc2)n1
4. COc1cccc(C)c1C1CC2CCCN2O1 (stereo not drawn)

Reply |
1. 94 % of control
2. 110 % of control
3. 96 % of control
4. 106 % of control

Entry O=C1CSC(=S)N1Cc1cccnc1 : T/C on P388 leukemia ip, CD2F1 mice, survival T/C = 102 % of control

###

- Tested on: P388 leukemia ip, CD2F1 mice, survival T/C
- test summary: NCI In Vivo Anticancer Drug Screen. Data for tumor model P388 Leukemia (intraperitoneal) in CD2F1 (CDF1) mice
- recorded conditions: endpoint: median survival time; dose: 25.0 mg/kg/injection; schedule: Q04DX003 (ip); vehicle: saline with Tween-80
Toxic doses and inconclusive results are not listed. How the source made its calls: active means survival T/C of 150% or more; inactive means T/C below 125% in these data.
Pick one and only one: y = active, n = inactive

compound | label value
N=C(N)N1CCNc2ccccc2C1 | n
NC(Cc1ccc(O)cc1)C(=O)OC1CCCCC1 (centres undefined) | n
CN1CCN(c2nc3cccnc3s2)CC1 | n

Ask | Called result for O=C(c1ccccc1)C(O)O
Reply | n

Ask | Dear all, I need the recorded test outcome for COc1ccc(/C=C2\CCCC3=C2N=C2SCC(=O)N2C3c2ccc(OC)cc2)cc1 (centres undefined) , thank you.
Reply | n

Ask | Dear all, I need the recorded test outcome for O=C/C=C/c1ccc([N+](=O)[O-])cc1 , thank you.
Reply | n

###

- Tested on: P388 leukemia ip, CD2F1 mice, survival T/C
- test summary: NCI In Vivo Anticancer Drug Screen. Data for tumor model P388 Leukemia (intraperitoneal) in CD2F1 (CDF1) mice
- recorded conditions: endpoint: median survival time; dose: 50.0 mg/kg/injection; schedule: Q01DX009 (ip); vehicle: distilled water + Tween-80
Toxic doses and inconclusive results are not listed. How the source made its calls: active means survival T/C of 150% or more; inactive means T/C below 125% in these data.
Your response should consist of one outcome taken from true (active), false (inactive)

Ask | Returns: the outcome recorded for C=C1C(=O)OC2C=CCC12 (stereo not drawn) in this assay.
Reply | false

Ask | Call for entry C=C(C(=O)OC)C1C=CCC1 (stereo not drawn) :
Reply | false

Ask | Per the records of this test, what outcome belongs to CCCCCCC(=O)Oc1ccc[nH]c1=O ?
Reply | false

Ask | Given CCOC(=O)c1ccc(NC(=O)Nc2nc3ccccc3s2)cc1 , state the outcome it received in this test.
Reply | false

Ask | Check the results log: what was the call for CCOC(=O)CC1(O)C=C(C)C(=O)C(C)=C1 ?
Reply | false

Ask | Field: outcome | Entry: CCc1nc(N)nc(N)c1-c1ccc(Cl)c(N=[N+]=[N-])c1
Reply | false

Ask | I'd appreciate the recorded outcome for CCOC(=O)/C(C#N)=C/Nc1cc(C(=O)OCC)cc2c(OC)c(OC)ccc12 from this test.
Reply | false

Ask | Hi, do you know how Cn1c(-c2ccccc2)c(COC(=O)NC2CCCCC2)c(COC(=O)NC2CCCCC2)c1-c1ccc(Cl)cc1 came out in this test?
Reply | true
